experiment: Antagonist activity at PAR4 in ICR mouse platelet-rich plasma assessed as inhibition of PAR4 AP AYPGKF-NH2-induced platelet aggregation by photo-turbidimetry assay
Listed here are compounds together with their documented IC50.

The following compounds have reported results that may help.
# Substance Smiles, Result
records = [
    ("Cc1ccc(-c2cc(C)cc3c(=O)n(C)cnc23)cc1", "> 10 µM"),
    ("Cc1cc(-c2nn3ccnc3s2)c2ccn(C)c(=O)c2c1", "3 µM"),
    ("COc1cc(Cl)c2nc(-c3cc(C)cc4c(=O)n(C)ccc34)sc2c1", "0.98 µM"),
    ("Cc1cc(-c2nc3c(Cl)cc(OCCNC(=O)OC(C)(C)C)cc3s2)c2ncn(C)c(=O)c2c1", "2.07 µM"),
    ("COCc1cc2ccc(OC)c(-c3nn4ccnc4s3)c2o1", "10 µM"),
    ("Cn1cnc2c(-c3nc4c(s3)CCCC4)cccc2c1=O", "2.61 µM"),
]

The recorded IC50 for `CCn1cnc2c(-c3nc4c(Cl)cc(OC)cc4s3)cc(C)cc2c1=O` is 1.85 µM

Short answer for `COCn1cnc2c(-c3nc4c(s3)CCCC4)cc(C)cc2c1=O` : IC50 was 2.32 µM

Form: compound = `COc1cc(Cl)c2nc(-c3cc(C)cc4c3CCN(C)C4=O)sc2c1` ; IC50 = 1.84 µM

Sure, the documented IC50 for `CCCCc1cc(-c2nc3c(s2)CCCC3)c2ncn(C)c(=O)c2c1` is 7.04 µM

Per the record, `Cc1cc2c(c(-c3nn4cc(C)nc4s3)c1)CCN(C)C2=O` has IC50 of 8.7 µM

###

test: Antagonist activity at PAR4 in ICR mouse platelet-rich plasma assessed as inhibition of PAR4 AP AYPGKF-NH2-induced platelet aggregation by photo-turbidimetry assay
Metric Name: IC50

Recorded results for 2 compounds are shown here.
# Substance Smiles, IC50
records = [
    ("Cc1cc2c(c(-c3nn4ccnc4s3)c1)CCN(C)C2=O", "> 10 µM"),
    ("COc1cc(Cl)c2nc(-c3cc(C)cc4c(=O)n(Cc5ccccc5)cnc34)sc2c1", "> 10 µM"),
]

Lab note: measured IC50 of `Cc1cc(-c2ccccc2)c2ncn(C)c(=O)c2c1` was > 10 µM
